Task for the reader: assign each of the following compounds its reported IC50.
# TARGET: human CRTH2 (Homo sapiens)
# Construct: Full-length human CRTH2 cDNA was generated by polymerase chain reaction (PCR); expressed in transfected cells; host or cells: 293 cells stably transfected with pHLT124 (pCDNA3.1(+)), named 293(124)
# Sequence (Q9Y5Y4 whole entry): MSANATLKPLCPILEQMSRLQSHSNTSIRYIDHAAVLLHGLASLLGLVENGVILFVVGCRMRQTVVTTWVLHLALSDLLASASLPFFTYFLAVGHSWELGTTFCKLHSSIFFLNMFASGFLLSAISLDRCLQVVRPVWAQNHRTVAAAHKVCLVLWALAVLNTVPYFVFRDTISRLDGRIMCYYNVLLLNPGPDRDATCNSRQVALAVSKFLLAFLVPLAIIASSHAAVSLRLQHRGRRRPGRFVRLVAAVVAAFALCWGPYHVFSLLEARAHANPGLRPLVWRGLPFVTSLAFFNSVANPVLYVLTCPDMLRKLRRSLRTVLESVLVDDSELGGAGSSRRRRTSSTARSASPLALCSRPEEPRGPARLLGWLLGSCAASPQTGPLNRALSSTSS
# ASSAY INFO: Human CRTH2 binding assay (3H-PGD2, 293(124) cells)
# MEASUREMENT SETUP: buffer; read-out: CRTH2 IC50 (nM) Buffer
Give the number; nM is assumed, so skip it.

CCNC(=O)c1ccc(Oc2ccc(CC(=O)O)cc2Cl)c(NS(=O)(=O)c2ccc(C)cc2)c1 [reference compound] tested on human CRTH2 (Homo sapiens) gave IC50: 2.3

Sample CC1(NC(=O)c2ccc(Oc3cc(F)c(CC(=O)O)cc3Cl)c(NS(=O)(=O)c3ccc(C(F)(F)F)cc3Cl)c2)CCC1 , system: human CRTH2 (Homo sapiens). Its IC50 is 8.1

Reading of IC50 for CC(C)(C)NC(=O)c1ccc(Oc2cc(F)c(CC(=O)O)cc2Cl)c(NS(=O)(=O)c2ccc(OC(F)(F)C(F)F)cc2Cl)c1 with human CRTH2 (Homo sapiens): 4.6

Bench note, human CRTH2 (Homo sapiens): CC(C)(C)NC(=O)c1ccc(Oc2cc(F)c(CC(=O)O)cc2Cl)c(NS(=O)(=O)c2ccc(OC(F)(F)F)cc2Cl)c1 , IC50 reads 9.3

IC50 value, target or system human CRTH2 (Homo sapiens), for CC(C)(C)NC(=O)c1ccc(Oc2cc(F)c(CC(=O)O)cc2F)c(NS(=O)(=O)c2ccc(C3CC3)cc2Cl)c1 : 3

The compound Cc1ccc(S(=O)(=O)Nc2cc(C(=O)NC(C)(C)C)ccc2Oc2cc(F)c(CC(=O)O)cc2Cl)c(Cl)c1 on human CRTH2 (Homo sapiens): IC50 was 3.3

Item Cc1ccc(S(=O)(=O)Nc2cc(C(=O)NC3CCC3)ccc2Oc2cc(F)c(CC(=O)O)cc2Cl)c(Cl)c1 was tested on human CRTH2 (Homo sapiens); the reported IC50 is 1.3

====

# TARGET: DP (Homo sapiens)
# Sequence (Q13258 1-359): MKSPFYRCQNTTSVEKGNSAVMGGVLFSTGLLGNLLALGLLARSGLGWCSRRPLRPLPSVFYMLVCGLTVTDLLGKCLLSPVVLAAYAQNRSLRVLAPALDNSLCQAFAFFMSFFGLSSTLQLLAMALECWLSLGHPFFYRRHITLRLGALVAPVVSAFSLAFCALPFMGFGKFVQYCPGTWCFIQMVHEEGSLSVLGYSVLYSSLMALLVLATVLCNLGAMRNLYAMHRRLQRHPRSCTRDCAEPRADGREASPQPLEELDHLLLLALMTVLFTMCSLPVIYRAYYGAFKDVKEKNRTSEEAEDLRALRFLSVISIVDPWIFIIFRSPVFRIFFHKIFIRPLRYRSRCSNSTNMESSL
# ASSAY INFO: DP activity (IC50)
# Type: binding
# MEASUREMENT SETUP: buffer; read-out: DP IC50 (nM) Buffer
MEASURED PROPERTY: IC50 (nM)
Return type: number; implicit unit nM.

Recorded IC50 (compound CC1(NC(=O)c2ccc(Oc3cc(F)c(CC(=O)O)cc3Cl)c(NS(=O)(=O)c3ccc(C(F)(F)F)cc3Cl)c2)CCC1 ): 15.1

// field: IC50; key: Cc1ccc(S(=O)(=O)Nc2cc(C(=O)NC3(C)CCC3)ccc2Oc2cc(F)c(CC(=O)O)cc2Cl)c(Cl)c1 ; value = 2.8

Form field IC50, entry CC(C)(C)NC(=O)c1ccc(Oc2cc(F)c(CC(=O)O)cc2Cl)c(NS(=O)(=O)c2ccc(OC(F)(F)F)cc2Cl)c1 : 14.5

Lab book: IC50 of CC(C)(C)NC(=O)c1ccc(Oc2cc(F)c(CC(=O)O)cc2Cl)c(NS(=O)(=O)c2ccc(C3CC3)cc2Cl)c1 [drawing 69] noted as 3

IC50 in this record for CC1(NC(=O)c2ccc(Oc3cc(F)c(CC(=O)O)cc3Cl)c(NS(=O)(=O)c3ccc(OC(F)(F)F)cc3Cl)c2)CCC1 : 10.7

Entry CC(C)(C)NC(=O)c1ccc(Oc2cc(F)c(CC(=O)O)cc2Cl)c(NS(=O)(=O)c2ccc(OC(F)(F)C(F)F)cc2Cl)c1 , IC50 reported as 5.9

// O=C(O)Cc1cc(Cl)c(Oc2ccc(C(=O)NC3CCC3)cc2NS(=O)(=O)c2ccc(C3CC3)cc2Cl)cc1F : IC50 value = 4.6

Notebook: CCC(C)(C)NC(=O)c1ccc(Oc2cc(F)c(CC(=O)O)cc2Cl)c(NS(=O)(=O)c2ccc(C(F)(F)F)cc2Cl)c1 , IC50 read as 15.6

Quick note, IC50 for CCNC(=O)c1ccc(Oc2ccc(CC(=O)O)cc2Cl)c(NS(=O)(=O)c2ccc(Cl)cc2Cl)c1 [reference compound] landed at 12

Input CC(C)(C)NC(=O)c1ccc(Oc2cc(F)c(CC(=O)O)cc2F)c(NS(=O)(=O)c2ccc(C3CC3)cc2Cl)c1 . Output IC50: 5

// recorded IC50 for Cc1ccc(S(=O)(=O)Nc2cc(C(=O)NC(C)(C)C)ccc2Oc2cc(F)c(CC(=O)O)cc2Cl)c(Cl)c1 : 5.6

The value of IC50 measured for the compound CC(C)(C)NC(=O)c1ccc(Oc2cc(F)c(CC(=O)O)cc2Cl)c(NS(=O)(=O)c2ccc(C(F)(F)F)cc2Cl)c1 turned out to be 12.6

Entry under test: CCC(C)(C)NC(=O)c1ccc(Oc2cc(F)c(CC(=O)O)cc2Cl)c(NS(=O)(=O)c2ccc(C)cc2Cl)c1 . Its IC50 was 3.9

// IC50 value for CC(C)(C)NC(=O)c1ccc(Oc2cc(F)c(CC(=O)O)cc2Cl)c(NS(=O)(=O)c2ccc(Cl)cc2Cl)c1 : 18

====

# TARGET: human CRTH2 (Homo sapiens)
# Construct: Full-length human CRTH2 cDNA was generated by polymerase chain reaction (PCR); expressed in transfected cells; host or cells: 293 cells stably transfected with pHLT124 (pCDNA3.1(+)), named 293(124)
# ASSAY INFO: Human CRTH2 binding assay (3H-PGD2, 293(124) cells)
# MEASUREMENT SETUP: plasma; read-out: CRTH2 IC50 (nM) Plasma
MEASURED PROPERTY: IC50 (nM)
Only the number, expressed in nM, is required.

Item: CC(C)(C)NC(=O)c1ccc(Oc2cc(F)c(CC(=O)O)cc2Cl)c(NS(=O)(=O)c2ccc(Cl)cc2Cl)c1 | IC50: 13

IC50 in this record for CC1(NC(=O)c2ccc(Oc3cc(F)c(CC(=O)O)cc3Cl)c(NS(=O)(=O)c3ccc(C(F)(F)F)cc3Cl)c2)CCC1 : 18.4

Sure, the documented IC50 for O=C(O)Cc1cc(Cl)c(Oc2ccc(C(=O)NC3CCC3)cc2NS(=O)(=O)c2ccc(C3CC3)cc2Cl)cc1F is 7.9

# IC50 (compound: CCNC(=O)c1ccc(Oc2ccc(CC(=O)O)cc2Cl)c(NS(=O)(=O)c2ccc(C)cc2)c1 [reference compound] ) is 26
